Listing of entries alongside the reported remaining at 0.5 h.
# ASSAY_OVERVIEW: Stability in human liver microsomes assessed as parent compound remaining after 30 mins
# Type: ADME, microsome
# CONDITION_PARAMETERS: read-out: Stability

CPD_SMILES	remaining at 0.5 h (%)
Cc1nnc2c(Nc3cccc(CNC(=O)OC(C)(C)C)c3)nc3ccccc3n12	27
Cc1nnc2c(Nc3cccc(CNC(=O)C(C)C)c3)nc3ccccc3n12	92

* * *

# ASSAY_OVERVIEW: Clearance in rat at 2 mg/kg, iv
# Format: ADME, organism-based
# CONDITION_PARAMETERS: in vivo

CPD_SMILES	clearance / mL/min/kg
Cc1nnc2c(Nc3cccc(CNC(=O)OC(C)(C)C)c3)nc3ccccc3n12	8.33
